# Experiment Notes: in vivo
# Study Conditions: sheep, 0.15 mg/kg, morphine-6-glucuronide concentration (plasma)
Observable: concentration at 1.5 h

- Compound: "CN1CC[C@]23c4c5ccc(O)c4O[C@H]2[C@@H](O[C@@H]2O[C@H](C(=O)O)[C@@H](O)[C@H](O)[C@H]2O)C=C[C@H]3[C@H]1C5 [morphine-6-glucuronide]"
  Observable: "concentration at 1.5 h"
  Measured Value: "0.0411 µg/mL"

====

# Experiment Notes: Pharmacokinetic parameters after nasal administration to sheep
# Study Conditions: sheep, plasma, 0.15 mg/kg, Cmax, nasal 0.15 mg/kg with 0.5% chitosan; mean of 3 sheep

- Molecule: "CN1CC[C@]23c4c5ccc(O)c4O[C@H]2[C@@H](O[C@@H]2O[C@H](C(=O)O)[C@@H](O)[C@H](O)[C@H]2O)C=C[C@H]3[C@H]1C5 [morphine-6-glucuronide]"
  Cmax: "132 ng/mL"
